Values compiled from patent US20230340142A1.

biological target: T1, human PD-L1 (human, UniProt Q9NZQ7 19-238, limits assumed); assay: flow cytometry on RKO cells (PD-L1 on the cell surface), PE-labelled secondary antibody, MFI
T1 construct: also called hPD-L1
T1 sequence (Q9NZQ7 19-238 limits assumed): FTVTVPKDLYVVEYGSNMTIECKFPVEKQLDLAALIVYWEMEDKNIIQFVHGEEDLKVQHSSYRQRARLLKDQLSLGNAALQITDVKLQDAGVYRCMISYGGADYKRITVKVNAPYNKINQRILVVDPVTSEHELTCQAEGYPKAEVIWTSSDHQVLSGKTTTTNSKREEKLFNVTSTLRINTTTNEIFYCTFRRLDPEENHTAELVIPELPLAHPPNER
observable: EC50 (read off the curve)

- Clone N (antibody, V domains shown, Mouse hybridoma clone) VH: EVQLQQSGPELVKPGASMKISCKASGYSFTGYTMNWVKQSHGKNLEWIGLIIPHNGGTSYNQKFKDKATLTVDKSSRTAYMELLSLTSEDSAVYYCASLMTTAPRDSMDYWGQGTSVTVSS VL: DIQMTQTTSSLSASLGDRVTISCRASQDISNYLNWYQQKPDGTVKLLIYYTSRLHSGVPSRFSGSGSGTDYSLTISNLDQEDIATYFCQQGATLPWTFGGGTKLEIK: ~0.03 µg/mL
- Clone D (antibody, V domains shown, Mouse hybridoma clone) VH: EVQLQQSGPELVKPGASMKISCKASGYSFTGYTMNWVKQSHGKNLEWIGLIIPYNGGISYNQKFKDKATLTVDKSSSTAYMELLSLTSEDSAVYYCASLITTAPRDSMDYWGQGTSVTVSS VL: DIQMTQTTSSLSASLGDRVTISCRASQDISNYLNWYQQKPDGSVKLLIYYTSKLHSGVPSRFSGSGSGTDYSLTISNLEQEDIATYFCQQGDALPWTFGGGTKLEIK: ~0.02 µg/mL

Here is the next item to consider.
Query (binder): Clone B (antibody, V domains shown, Mouse hybridoma clone) VH: QGQMQQSGAELVKPGASVKLSCKTSGFTFSSSYISWLKQKPGQSLEWIAWIYAGTGGTSYNQKFTGKAQLTVDTPSSTAYMQFSSLTTEDSAIYYCARHEGKYWYFDVWGAGTTVTVSS VL: QILLTQSPAIMSASPGEKVTMTCSASSSVSYVHWYQQKPGSSPKPWIYDTSNLASGFPARFSGSGSGTSYSLIISSMEAEDAATYYCHQRSSYPWTFGGGTKLEIK ; field requested: EC50 (read off the curve) ~0.04 µg/mL
